Some molecules, each annotated with its measured IC50.
testTarget: RORγ ligand binding domain (LBD) (Homo sapiens, UniProt P51449)
Sequence (P51449 269-508 limits assumed): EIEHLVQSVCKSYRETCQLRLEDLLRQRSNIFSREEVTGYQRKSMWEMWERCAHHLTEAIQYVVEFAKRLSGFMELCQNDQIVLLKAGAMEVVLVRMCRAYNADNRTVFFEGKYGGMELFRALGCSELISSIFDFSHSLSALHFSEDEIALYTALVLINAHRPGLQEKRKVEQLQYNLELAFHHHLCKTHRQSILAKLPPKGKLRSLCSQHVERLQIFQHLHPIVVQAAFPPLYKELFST
experimentSummary: TR-FRET Activity Assay (ligand sensing assay, RORγ-LBD / coactivator peptide interaction)
The reply should be a number in nM, with the unit left off.

// worked examples, IC50 included
>>> assayresult("CC(C)(O)c1cc(-c2cc(C(=O)N[C@H]3C[C@H](C(=O)O)C3)[nH]c2CC2CCCCC2)cc(C2(C)CC2)c1 [Example 17]")
1260
>>> assayresult("Cn1c(C(=O)NC2CCS(=O)(=O)CC2)cc(-c2ccc(S(=O)(=O)NC(C)(C)C)c3ccccc23)c1CC1CCCCC1 [8/6]")
501
>>> assayresult("CC(C)(C)c1cc(-n2nc(C(=O)NCc3cnco3)c(Cl)c2CC2CCCCC2)cc(C(C)(C)C)c1 [103/7]")
251
>>> assayresult("CC(C)(C)NS(=O)(=O)c1ccc(-c2cc(C(=O)NC3CCS(=O)(=O)CC3)nn2CC2CCCCC2)c(Cl)c1Cl [Example 112/1]")
501
>>> assayresult("CC(C)(C)NS(=O)(=O)c1ccc(-n2nc(C(=O)N[C@H]3C[C@H](C(=O)O)C3)nc2CC2CCCCC2)cc1C(C)(C)C [Example 318]")
2000

**Q:** Entry Cc1c(C(=O)NC2CCOCC2)cn(-c2cc(C(C)(C)C)cc(C3(C)CC3)c2)c1C(=O)N1CCCCC1 [Example 13] has what IC50?
**A:** 1000

**Q:** Consider the molecule Cn1c(C(=O)NCC(C)(C)O)cc(-c2ccc(S(=O)(=O)NC(C)(C)C)c3ccccc23)c1CC1CCCCC1 [8/7] and give its measured IC50.
**A:** 501

**Q:** What IC50 value was documented for this molecule, CC(C)(C)c1cc(-n2nc(C(N)=O)c(Cl)c2CC2CCCCC2)cc(C(C)(C)C)n1 [Example 315] ?
**A:** 126

====

testTarget: RORγ (UniProt P51449)
Construct: hRORg-LBD|aa259-518|NP_005051.2; hRORgt|aa1-497|NP_001001523 (RORg, t isoform, 497aa); mRORg-LBD|aa264-516|NP_035411
Type: cell-based
experimentalContext: renilla normalised (RENnorm) luciferase, 293T cells, 16 h
# pIC50 (REN) listing for each entry below
Field format: numeric only.

Would you please look over these solved cases?
>>> assayresult("Cn1c(C(=O)N2CC(C(C)(C)C(=O)O)C2)cc(-c2cc(C(C)(C)C)cc(C3(C)CC3)c2)c1CC1CCCCC1")
7.4
>>> assayresult("CC(C)(C)c1cc(-n2nc(C(=O)NC3CCOCC3)c(Cl)c2CC2CCCCC2)cc(C(C)(C)C)c1")
6.4
>>> assayresult("CC(C)(C)NS(=O)(=O)c1ccc(-c2cc(C(=O)N[C@H]3C[C@H](C(=O)O)C3)nn2CC2CCCCC2)cc1C(F)(F)F")
6.3

**Q:** Query: pIC50 (REN); subject: `Cn1c(C(=O)N[C@H]2C[C@H](C(=O)O)C2)cc(-c2cc(C(C)(C)C)cc(C3(C)CC3)c2)c1C(=O)C1CCCCC1`
**A:** 8.5

**Q:** Fill blank: measured pIC50 (REN) of the compound `CC(C)(C)c1cc(-c2nc(C(=O)NC3CC3)nn2CC2CCCCC2)cc(C(C)(C)C)c1` is ____.
**A:** 6.1

**Q:** Which pIC50 (REN) is listed for `Cn1c(C(=O)NC2CCOCC2)cc(CC2CCCCC2)c1-c1cc(C(C)(C)C)cc(C2(C)CC2)c1` ?
**A:** 6.9

**Q:** Item `CC(C)(C)c1cc(-c2[nH]c(C(=O)N[C@H]3C[C@H](C(=O)O)C3)c(Cl)c2CC2CCCCC2)cc(C2(C)CC2)c1` has what recorded pIC50 (REN)?
**A:** 6.5

**Q:** pIC50 (REN) for `Cn1c(C(=O)NCC(C)(C)O)cc(-c2ccc(S(=O)(=O)NC(C)(C)C)c3ccccc23)c1CC1CCCCC1` ?
**A:** 7.9
